Data credit: patent US20240239907A1

# test_system: T1, human CXCR6 (human, UniProt O00574 1-342)
# T1 construct: also called hu-CXCR6; wild type human CXCR6
# T1 sequence (O00574 whole entry): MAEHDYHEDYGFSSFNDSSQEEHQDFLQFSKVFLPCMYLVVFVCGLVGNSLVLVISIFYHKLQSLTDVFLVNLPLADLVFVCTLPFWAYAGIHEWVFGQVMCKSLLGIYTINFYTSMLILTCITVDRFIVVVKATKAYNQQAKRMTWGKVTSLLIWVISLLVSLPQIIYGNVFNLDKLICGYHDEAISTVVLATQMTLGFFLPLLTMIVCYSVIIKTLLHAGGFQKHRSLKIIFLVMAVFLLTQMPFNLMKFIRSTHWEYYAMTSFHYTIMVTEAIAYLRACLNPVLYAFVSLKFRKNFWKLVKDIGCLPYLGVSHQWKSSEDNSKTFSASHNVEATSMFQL
# measurement_notes: screening on cells overexpressing CXCR6, one single concentration, yes/no
measurement_kind: binding result

Beacon2-F1 (antibody, V domains shown, Mouse-derived; tested at the screening stage) VH: EVQLVESGGDLVKPGGSLKLSCAASGFTFSSYGMSWVRQTPDKRLEWVATISSGGSYTYYPDSVKGRFPISRDNAKNTLYQQMSSLNSEDTAMYYCARLYGNYPYFAMDYWGQGTSVTVSS VL: DIVMTQSQKFMSTSVGDRVSITCKASQNVGTAVAWYQQKPGQSPKLLIFSASNRYTGVPDRFTGSGSGTDFTLTISNMQSEDLADYFCQQYSSYPYTFGGGTKLEIK | binds
Beacon2-A7 (antibody, V domains shown, Mouse-derived; tested at the screening stage) VH: EMKLEESGGGLVQPGGSMKLSCVASGFTFSNYWMSWVRQSPEKGLQWVGQIRLKSDNYATHYAESVKGKFTISRDDSKSSVYLQMNNLRAEDTGIYYCAPYSNWGYWGQGTTLTVSS VL: DIVMTQAAPSIPVTPGGSVSISCRSTKSLLHTNGNTYLYWFLQRPGQSPQVLIYRMSNLASGVPDRFSGSGSGTAFTLRISRVEAEDVGVYYCMQYLEYPYTFGSGTKLEIK | binds
CNE-6E5-C1 (antibody, V domains shown, Mouse-derived; tested at the screening stage) VH: QVTLKESGPGILQSSQILSLTCSFSGFSLITSGMGVSWIRKTSGKGLEWLAHIYWDDEKRYNPSLKSRLTISKGTSRNQVFLRITSVDTTDTATYFCVRREDFGDGFDYWGQGTTLTVSP VL: DVLMTQAPLSLPVSLGDQASISCRSSQTIVHSNGVTYLEWYLQKPGQSPKLLIYKVSNRFSGVPDRFSGSGSGTYFTLKISRVEAEDLGVYYCFQGSHVPPTFGGGTKLEIK | binds
